# assayTarget: Peroxisome proliferator-activated receptor gamma (Homo sapiens) (UniProt P37231)
# Sequence (P37231 whole entry, looked up): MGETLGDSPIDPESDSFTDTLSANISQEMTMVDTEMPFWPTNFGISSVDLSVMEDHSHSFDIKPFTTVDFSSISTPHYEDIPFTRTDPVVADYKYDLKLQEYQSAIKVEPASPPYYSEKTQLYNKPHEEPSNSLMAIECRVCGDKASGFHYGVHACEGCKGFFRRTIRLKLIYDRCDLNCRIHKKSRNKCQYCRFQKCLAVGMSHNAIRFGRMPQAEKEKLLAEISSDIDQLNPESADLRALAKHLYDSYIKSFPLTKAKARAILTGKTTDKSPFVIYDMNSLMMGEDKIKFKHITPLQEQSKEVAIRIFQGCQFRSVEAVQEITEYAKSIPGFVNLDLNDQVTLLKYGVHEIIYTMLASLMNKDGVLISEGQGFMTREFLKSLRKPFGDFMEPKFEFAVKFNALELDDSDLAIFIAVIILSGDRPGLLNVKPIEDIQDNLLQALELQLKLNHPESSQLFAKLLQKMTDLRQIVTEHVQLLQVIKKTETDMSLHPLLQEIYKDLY
# methodDescription: qHTS assay to identify small molecule agonists of the peroxisome proliferator-activated receptor gamma (PPARg) signaling pathway (AID 743094); as to activation: % is scaled to controls: 0 for no effect and ±100 for the full control effect
# assayConditions: HEK293H PPARg-UAS-bla, beta-lactamase FRET ratio, 17 h; series mostly up to 57 µM
Results filed as inconclusive are left out. Calls of active or inactive are those of the source. Calls follow the shape of the dose curve; as a rule, active = well fitted activation curve with a large enough effect in the signal ratio in the repeat runs (not every such curve was filed as active); inconclusive = weak or mixed curves, or effect the other way; inactive = no such curve, though single readings can be large or run the other way; the % refers to the signal ratio.
Answer with one of the outcomes given here: 1 (active), 0 (inactive)

Enquiry: What call does the record list for `NCCCN(CCO)CCO` ?
Return: 0

Enquiry: What call does the record list for `O=c1c2ccccc2nnn1CCl` ?
Return: 0

Enquiry: What call does the record list for `FC(F)(F)C(F)(F)C(F)(F)C(F)(F)C(F)(F)C(F)(F)CCI` ?
Return: 0

Enquiry: What call does the record list for `C=CC(=O)OCCOC(=O)CCC(=O)O` ?
Return: 1

Enquiry: What call does the record list for `O=C(CC(=O)c1ccccc1)c1ccccc1` ?
Return: 0

Enquiry: What call does the record list for `CC(C)(C)c1cc(CO)cc(C(C)(C)C)c1O` ?
Return: 0

Enquiry: What call does the record list for `O=C(O)[C@@H]1[C@H]2C[C@H]3c4[nH]c5ccccc5c4CCN3C[C@@H]2CC[C@@H]1O` ?
Return: 0

Enquiry: What call does the record list for `CCCC(=O)OCC` ?
Return: 0

Enquiry: What call does the record list for `O=S(=O)(O)c1ccc(O)c2ncccc12` ?
Return: 0

Enquiry: What call does the record list for `Cc1cccc(Oc2ccccc2)c1` ?
Return: 0

Enquiry: What call does the record list for `N#Cc1c(F)cccc1F` ?
Return: 0

Enquiry: What call does the record list for `O=C1CCCCCO1` ?
Return: 0

Enquiry: What call does the record list for CCC(=O)OC(C)(C)C1CC=C(C)CC1 (stereo not given) ?
Return: 0

Enquiry: What call does the record list for N[C@H]1C(O)O[C@H](CO)[C@H](O)[C@@H]1O (stereo not given in full) ?
Return: 0

Enquiry: What call does the record list for `NC(=S)N/N=C/c1cccnc1` ?
Return: 0

Enquiry: What call does the record list for `CCN(CC)CCOc1ccc2c(c1)C(=O)c1cc(OCCN(CC)CC)ccc1-2` ?
Return: 0

Enquiry: What call does the record list for `CCOC(=O)CC(C)C` ?
Return: 0

Enquiry: What call does the record list for `CCOC(=O)CC(=O)c1cc(F)c(Cl)nc1Cl` ?
Return: 0

Enquiry: What call does the record list for CC(O)C1CCCCC1 (stereo not given) ?
Return: 0

Enquiry: What call does the record list for `CCN1CCC[C@H]1CNC(=O)c1c(OC)ccc(Br)c1OC` ?
Return: 0

Enquiry: What call does the record list for CCN(CCO)CCCC(C)Nc1ccnc2cc(Cl)ccc12 (stereo not given) ?
Return: 0

Enquiry: What call does the record list for CC1=CCC(C(C)C)C=C1 (stereo not given) ?
Return: 0

Enquiry: What call does the record list for `CC(=O)OCCc1ccccc1` ?
Return: 0

Enquiry: What call does the record list for `CC(C)(C)c1cc(CCC(=O)OCC(COC(=O)CCc2cc(C(C)(C)C)c(O)c(C(C)(C)C)c2)(COC(=O)CCc2cc(C(C)(C)C)c(O)c(C(C)(C)C)c2)COC(=O)CCc2cc(C(C)(C)C)c(O)c(C(C)(C)C)c2)cc(C(C)(C)C)c1O` ?
Return: 0

Enquiry: What call does the record list for `CC(C)(C)c1ccc(S)cc1` ?
Return: 0

Enquiry: What call does the record list for `Cn1c(N)nc2nc[nH]c2c1=O` ?
Return: 0

Enquiry: What call does the record list for `COc1ccccc1OC(=O)Oc1ccccc1OC` ?
Return: 0

Enquiry: What call does the record list for `CC(=O)O[C@@H]1C(=O)O[C@@H]2[C@H]1OC(=O)[C@@H]2OC(C)=O` ?
Return: 0

Enquiry: What call does the record list for `O=S1(=O)c2cccc3cccc(c23)N1CCCN1CCN(c2ccc(F)cc2)CC1` ?
Return: 0

Enquiry: What call does the record list for CCCCCCCCC(CO)CCCCCC (stereo not given) ?
Return: 0

Enquiry: What call does the record list for `CCOc1ccc2[nH]cc(C(=O)NCc3ccccc3)c(=O)c2n1` ?
Return: 0

Enquiry: What call does the record list for `N#Cc1cc2ccccc2c2ccccc12` ?
Return: 0

Enquiry: What call does the record list for `C#CCOC(=O)[C@@H](C)Oc1ccc(Oc2ncc(Cl)cc2F)cc1` ?
Return: 0

Enquiry: What call does the record list for `NCCCOCCOCCOCCCN` ?
Return: 0

Enquiry: What call does the record list for `Nc1nc(N)c(-c2ccccc2)s1` ?
Return: 0

Enquiry: What call does the record list for `c1ccc(-c2nc[nH]c2-c2ccccc2)cc1` ?
Return: 0

Enquiry: What call does the record list for `C1=Cc2ccccc2C1` ?
Return: 0

Enquiry: What call does the record list for OC(CCN1CCCCC1)(c1ccccc1)C1CCCCC1 (stereo not given) ?
Return: 0

Enquiry: What call does the record list for `CC[C@@H]1C[C@H](N(Cc2cc(C(F)(F)F)cc(C(F)(F)F)c2)C(C)=O)c2cc(C(F)(F)F)ccc2N1C(=O)OC(C)C` ?
Return: 0

Enquiry: What call does the record list for CCOC(=O)C1=C(C)NC(C)=C(C(=O)OC)C1c1cccc([N+](=O)[O-])c1 (stereo not given) ?
Return: 0

Enquiry: What call does the record list for `CCCCc1cc2ccccc2c(OCCN(C)C)n1` ?
Return: 0

Enquiry: What call does the record list for CC(CN)CCCN (stereo not given) ?
Return: 0

Enquiry: What call does the record list for `Cc1occc1S` ?
Return: 0

Enquiry: What call does the record list for `CCN(CC)CCOC(=O)C1(c2ccccc2)CCCC1` ?
Return: 0

Enquiry: What call does the record list for `C[Si](C)O[Si](C)(C)O[Si](C)(C)O[Si](C)C` ?
Return: 0

Enquiry: What call does the record list for `NC(N)=N/N=C/c1c(Cl)cccc1Cl` ?
Return: 0

Enquiry: What call does the record list for `N#CCc1cccc(C(F)(F)F)c1` ?
Return: 0

Enquiry: What call does the record list for `SC1CCCC1` ?
Return: 0

Enquiry: What call does the record list for `CCCCCCCC/C=C\CCCCCCCC(N)=O` ?
Return: 0

Enquiry: What call does the record list for `CCCCCCCCCCCCCCCCCBr` ?
Return: 0

Enquiry: What call does the record list for `CCCOc1ccc2nc(NC(=O)OC)[nH]c2c1` ?
Return: 0

Enquiry: What call does the record list for `CCCCC(CC)(CO)CO` ?
Return: 0

Enquiry: What call does the record list for Cn1c(=O)c2c(ncn2CC(O)CO)n(C)c1=O (stereo not given) ?
Return: 0

Enquiry: What call does the record list for `CCOC(=S)SSC(=S)OCC` ?
Return: 0

Enquiry: What call does the record list for `CNS(=O)(=O)Cc1ccc2[nH]cc(CCN(C)C)c2c1` ?
Return: 0
